B1: IFRG15 (parent)
chain: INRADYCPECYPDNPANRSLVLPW

- Variants of: B1
- Protocol Summary: protein stability index of a GFP-peptide fusion (GPS, HEK-293T) (PSI 1-6); higher = more stable;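 also: lentivirally expressed fusions sorted by FACS into six bins by GFP to DsRed ratio, PSI derived from sequencing read proportions per bin multiplied by bin number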
- Measurement Setup: c terminus: a fixed tail appended
Recorded Metric: protein stability index
Just the number.

Some solved cases for reference:
Sequence Variant: R18C
Recorded Metric: protein stability index
Recorded Number: 1.81

Sequence Variant: R18T
Recorded Metric: protein stability index
Recorded Number: 1.35

Sequence Variant: N17A
Recorded Metric: protein stability index
Recorded Number: 2.3

Sequence Variant: N14I
Recorded Metric: protein stability index
Recorded Number: 1.53

Sequence Variant: L22K
Recorded Metric: protein stability index
Recorded Number: 2.04

protein stability index in this record for `P23Y` : 2.09

protein stability index in this record for `L22F` : 2.05

protein stability index in this record for `L20R` : 2.13

protein stability index in this record for `N2Q` : 2.03

protein stability index in this record for `N17E` : 2.14

protein stability index in this record for `L22T` : 2.31

protein stability index in this record for `V21H` : 1.84

protein stability index in this record for `R18F` : 2.32

protein stability index in this record for `Y6V` : 2.46

protein stability index in this record for `P8G` : 2.67

protein stability index in this record for `C10I` : 1.74

protein stability index in this record for `P15G` : 2.48

protein stability index in this record for `L22V` : 3

protein stability index in this record for `N14G` : 2.83

protein stability index in this record for `W24A` : 2.19

protein stability index in this record for `N14E` : 2.64

protein stability index in this record for `C7S` : 3.23
